Target: isomerase (Mus musculus, UniProt Q91ZQ5)
Construct: from tissue; host or cells: eye of living mice (CD-1; Balb/c also mentioned)
Sequence (Q91ZQ5 whole entry): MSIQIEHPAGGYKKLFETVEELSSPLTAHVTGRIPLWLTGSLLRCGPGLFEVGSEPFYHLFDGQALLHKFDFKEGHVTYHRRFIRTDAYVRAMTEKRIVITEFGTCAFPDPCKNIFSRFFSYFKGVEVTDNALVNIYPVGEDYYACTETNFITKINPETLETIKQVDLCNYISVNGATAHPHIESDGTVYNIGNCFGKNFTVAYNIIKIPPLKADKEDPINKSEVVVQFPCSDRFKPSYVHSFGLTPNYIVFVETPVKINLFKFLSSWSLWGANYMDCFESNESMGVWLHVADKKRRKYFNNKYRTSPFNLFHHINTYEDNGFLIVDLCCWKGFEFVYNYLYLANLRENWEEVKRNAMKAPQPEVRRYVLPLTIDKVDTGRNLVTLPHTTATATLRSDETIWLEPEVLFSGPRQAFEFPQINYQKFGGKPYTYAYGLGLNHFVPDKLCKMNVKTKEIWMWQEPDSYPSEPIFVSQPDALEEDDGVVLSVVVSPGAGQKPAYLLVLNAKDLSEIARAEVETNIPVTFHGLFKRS
Experiment: In vivo murine isomerase assay
Conditions: 1.0 mg/kg, oral, mice, 11-cis-retinal (oxime) recovery after photobleaching
Description: The capability of sulphur-linked compounds to inhibit isomerase is determined by an in vivo murine isomerase assay. […] About six-week old dark-adapted CD-1 (albino) male mice are orally gavaged with compound (0.01-25 mg/kg) dissolved in an appropriate amount of oil (about 100 μl corn oil containing 10% ethanol, at least five animals per group). […] Retinoids are extracted from the eye and the regeneration of 11-cis-retinal is assessed at various time intervals. […]
Quantity Name: % Inibition 1.0 mg/kg, 4 h (%)

{"Compound": "NCCC(O)c1cccc(S(=O)(=O)CC2CCCCC2)c1 (centres unmarked)", "% Inibition 1.0 mg/kg, 4 h / %": 20.3}
{"Compound": "[2H]C1([2H])C([2H])([2H])C([2H])([2H])C([2H])(CSc2cccc(C(O)CCN)c2)C([2H])([2H])C1([2H])[2H] (centres unmarked)", "% Inibition 1.0 mg/kg, 4 h / %": "−4.9"}
{"Compound": "NCCC(O)c1cccc(SCC2CCCCC2)c1 (centres unmarked)", "% Inibition 1.0 mg/kg, 4 h / %": "−14.2"}

a. [2H]C([2H])(C1CCCCC1)S(=O)(=O)c1cccc(C(O)CCN)c1 (centres unmarked)
b. NCCC(O)c1cccc(SCC2(O)CCCCC2)c1 (centres unmarked)
Input: Lab notebook, comparison: a versus b , higher % Inibition 1.0 mg/kg, 4 h goes to which? Identify your selection by its label.
Output: b
(b: 14.8%, a: −1.6%)
